Numbers sourced from patent US11584752B2.

# assay_name: Decomposition of model 2-furylcarbinol derivatives in solution at room temperature, followed by NMR and photoluminescence spectroscopy
# cond: acetonitrile-d3/methanol solution, half-life for consumption t1/2, 3:1 acetonitrile-d3/methanol, room temperature, NMR, 21 mM

{"smiles_text": "Cc1cc(=O)oc2cc(NC(=O)OCc3ccc(Oc4ccc(CCOC(=O)C(C)(C)Br)cc4)o3)ccc12", "half-life at 21 mM, h": 9.3}

* * *

# assay_name: Decomposition of model 2-furylcarbinol derivatives in solution at room temperature, followed by NMR and photoluminescence spectroscopy
# cond: MeCN-d3/MeOH solution, half-life for decomposition t1/2, 3:1 MeCN-d3/MeOH, room temperature, NMR, first-order fit
measure: half-life at 19 μM (min)

{"compound": "Cc1cc(=O)oc2cc(NC(=O)OC(C)c3oc(COC(=O)C(C)(C)C)cc3Oc3ccccc3)ccc12 (stereo not shown)", "measure": "half-life at 19 μM", "observed_value": 34}
